- Experiment notes: AUC in rat at 25 mg/kg, po dosed as crystalline suspension in 20%HPBCD vehicle (20% hydroxypropyl-beta-cyclodextrin/80% water)
- Format: ADME, organism-based
- Set-up: dose 25 mg/kg, route oral
- Reported conditions: plasma
Metric: AUC (µM·h)
The reply should contain only the number, in µM·h.

Input line: Requested field: AUC. Item: `Nc1ncnc2c(C(=O)Nc3c(Cl)ccc(NS(=O)(=O)CCCF)c3F)csc12`
Output line: 2970

----------
- Experiment notes: Cmax in rat at 5 mg/kg, po dosed as crystalline suspension in 20%HPBCD vehicle (20% hydroxypropyl-beta-cyclodextrin/80% water)
- Type: ADME, organism-based
- Design: dose 5 mg/kg, route oral
- Reported conditions: in vivo
Metric: Cmax (µM)
Numeric only. Scale: µM

Input line: Dear colleague, I am looking for the recorded Cmax of the following molecule: `Nc1ncnc2c(C(=O)Nc3c(Cl)ccc(NS(=O)(=O)CCCF)c3F)csc12`
Output line: 44.5

----------
- Experiment notes: AUC in mouse at 10 mg/kg, po dosed as crystalline suspension in 20%HPBCD vehicle (20% hydroxypropyl-beta-cyclodextrin/80% water)
- Format: ADME, organism-based
- Design: dose 10 mg/kg, route oral
- Reported conditions: plasma
Metric: AUC (µM·h)
Expressed in µM·h, but write only the number.

Input line: Would you kindly share the measured AUC for `Nc1ncnc2c(C(=O)Nc3c(Cl)ccc(NS(=O)(=O)CCCF)c3F)csc12` ?
Output line: 867

----------
- Experiment notes: Cmax in rat at 25 mg/kg, po dosed as crystalline suspension in 20%HPBCD vehicle (20% hydroxypropyl-beta-cyclodextrin/80% water)
- Type: ADME, organism-based
- Parameters: dose 25 mg/kg, route oral
- Reported conditions: in vivo
Metric: Cmax (µM)
Record the value in µM, omitting the unit from your answer.

Input line: What value of Cmax has been reported for the following compound? `Nc1ncnc2c(C(=O)Nc3c(Cl)ccc(NS(=O)(=O)CCCF)c3F)csc12`
Output line: 201

----------
- Experiment notes: Dissociation constant, pKa of the compound at acidic pH
- Assay type: physicochemical
Metric: pKa
// keep it numeric: no unit symbol after the value

Past entries and their recorded results:
CCCS(=O)(=O)Nc1ccc(F)c(NC(=O)c2cccc3c(N)ncnc23)c1F :: 4.5
CCCS(=O)(=O)Nc1ccc(F)c(C(=O)Nc2cnc3[nH]nc(OC)c3c2)c1F :: 0.7

# next molecule below
Input line: Form field: reported pKa of `CCCS(=O)(=O)Nc1ccc(F)c(NC(=O)Nc2ncnc3[nH]nc(OC)c23)c1F`
Output line: 1.8

----------
- Experiment notes: Volume of distribution at steady state in rat at 1 mg/kg, iv dosed as crystalline suspension in 20%HPBCD vehicle (20% hydroxypropyl-beta-cyclodextrin/80% water)
- Type: ADME, organism-based
- Parameters: dose 1 mg/kg, route intravenous
- Reported conditions: in vivo, read-out: Vdss
Metric: Vd (L/kg)
Write the value in L/kg as a bare number.

Input line: Given the entry `Nc1ncnc2c(C(=O)Nc3c(Cl)ccc(NS(=O)(=O)CCCF)c3F)csc12` , report its measured Vd.
Output line: 0.14

----------
- Assayed target: Serine/threonine-protein kinase B-raf (Homo sapiens, UniProt P15056, V600E)
- Sequence (P15056 2-766 V600E limits assumed): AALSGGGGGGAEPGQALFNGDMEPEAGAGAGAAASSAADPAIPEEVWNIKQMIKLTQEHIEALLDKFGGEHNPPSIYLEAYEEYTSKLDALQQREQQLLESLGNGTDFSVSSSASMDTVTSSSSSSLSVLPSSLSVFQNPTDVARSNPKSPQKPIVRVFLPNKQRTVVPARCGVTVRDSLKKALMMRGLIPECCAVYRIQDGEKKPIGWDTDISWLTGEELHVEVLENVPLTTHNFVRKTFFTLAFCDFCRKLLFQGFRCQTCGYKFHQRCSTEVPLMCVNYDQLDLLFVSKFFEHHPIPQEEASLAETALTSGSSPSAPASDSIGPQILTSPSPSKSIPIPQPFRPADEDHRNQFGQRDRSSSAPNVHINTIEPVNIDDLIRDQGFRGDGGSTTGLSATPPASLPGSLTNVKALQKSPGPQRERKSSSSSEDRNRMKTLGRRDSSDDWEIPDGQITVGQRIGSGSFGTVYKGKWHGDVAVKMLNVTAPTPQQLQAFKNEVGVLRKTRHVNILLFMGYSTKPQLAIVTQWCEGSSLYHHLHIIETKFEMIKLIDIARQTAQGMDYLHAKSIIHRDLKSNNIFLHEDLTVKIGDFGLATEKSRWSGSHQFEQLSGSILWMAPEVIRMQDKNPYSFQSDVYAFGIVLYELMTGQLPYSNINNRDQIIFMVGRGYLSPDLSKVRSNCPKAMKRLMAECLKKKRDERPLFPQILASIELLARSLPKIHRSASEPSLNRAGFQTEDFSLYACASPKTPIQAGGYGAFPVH
- Experiment notes: Inhibition of B-raf V600E mutant-mediated Erk phosphorylation in human MALM-3M cells by fluorometric analysis
- Assay type: cell-based
pIC50 for assorted compounds
Keep in mind that pIC50 stands for -log10 of concentration in molar terms.

Previously resolved entries follow.
CCCS(=O)(=O)Nc1ccc(F)c(NC(=O)c2csc3c(N)ncnc23)c1Cl :: 7.82
CCCS(=O)(=O)Nc1ccc(F)c(NC(=O)c2cccc3c(N)ncnc23)c1Cl :: 8.11
CCCS(=O)(=O)Nc1ccc(F)c(NC(=O)Nc2cc(N)ncn2)c1F :: 6.36

Input line: So what's the measured pIC50 for this one? `Nc1ncnc2c(C(=O)Nc3c(Cl)ccc(NS(=O)(=O)CCCF)c3F)csc12`
Output line: 8.34

Input line: Reported pIC50 for `CCCS(=O)(=O)Nc1ccc(F)c(NC(=O)N(C)c2cc(N)ncn2)c1F` : what is it?
Output line: 6.62

Input line: Need pIC50, item `Nc1ncnc2c(C(=O)Nc3c(Cl)ccc(NS(=O)(=O)CCCF)c3F)cccc12`
Output line: 8.60

Input line: Looking for the measured pIC50 of `CCCS(=O)(=O)Nc1ccc(F)c(NC(=O)Nc2cc(NCCO)ncn2)c1F` , can you help?
Output line: 5.47

Input line: Any idea what its pIC50 is? The compound is `CCCS(=O)(=O)Nc1ccc(Cl)c(NC(=O)c2cccc3c(N)ncnc23)c1F`
Output line: 8.02

Input line: Sample `CCCS(=O)(=O)Nc1ccc(F)c(NC(=O)Nc2cc(NC)ncn2)c1F` — what was its pIC50?
Output line: 6.77

Input line: Could you tell me which pIC50 is on file for `CCCS(=O)(=O)Nc1ccc(F)c(NC(=O)Nc2ncnc3[nH]ncc23)c1F` ?
Output line: 7.06

Input line: pIC50 for `CCCS(=O)(=O)Nc1ccc(F)c(NC(=O)c2cccc3c(N)ncnc23)c1F` ?
Output line: 8.02

Input line: Quick one: pIC50 for `CCCS(=O)(=O)Nc1ccc(F)c(NC(=O)c2csc3c(N)ncnc23)c1F` ?
Output line: 7.82

Input line: Give the measured pIC50 of `CCCS(=O)(=O)Nc1ccc(Cl)c(NC(=O)c2csc3c(N)ncnc23)c1F` .
Output line: 7.72
